Assay: Enzyme screens for resolution of racemic N-(methoxycarbonyl)-4-keto-D,L-proline methyl ester (Example 1)
Format: biochemical
Conditions: 0.100M racemate; 0.20M sodium succinate pH 6.0, 5 h or 0.20M sodium acetate pH 5.0, 24 h; 5.0 to 50 mg/mL enzyme; 25° C.; optimum
endpoint label: conv. (percent conversion of the racemate)
Please report the result as a number followed by the unit.

Asked: Can you look up the measured conv. (percent conversion of the racemate) of protease (Chirazyme P1): commercial enzyme preparation, source Bacillus licheniformis (protein, UniProt P00780 106-379, looked up) Subtilisin Carlsberg: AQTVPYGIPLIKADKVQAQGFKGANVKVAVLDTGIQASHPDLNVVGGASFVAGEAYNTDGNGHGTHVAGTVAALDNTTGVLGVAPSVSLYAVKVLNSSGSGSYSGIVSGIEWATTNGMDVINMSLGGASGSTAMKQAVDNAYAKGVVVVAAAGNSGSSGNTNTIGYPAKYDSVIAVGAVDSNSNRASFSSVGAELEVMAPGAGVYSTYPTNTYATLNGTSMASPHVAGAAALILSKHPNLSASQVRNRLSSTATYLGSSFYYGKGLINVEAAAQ for me?
Given back: 54%

src = patent US5928933A
